# Test system: OVCAR-4 ovarian
# TEST NAME: NCI tumour cell line growth inhibition, 48 h
Form field: TGI (one value per entry).
PARAMETER: TGI

- MOLECULE: "Clc1ccccc1-c1nnc2c(Cc3ccccc3)nc3ccccc3n12"
  TESTED TARGET: "OVCAR-4 ovarian"
  PARAMETER: "TGI"
  RECORDED RESULT: "> 100 µM"
- MOLECULE: "O=C1C2C3CC(C4C5C=CC(C5)C34)C2C2C3CC(C12)C1C2C=CC(C2)C31 (centres undefined)"
  TESTED TARGET: "OVCAR-4 ovarian"
  PARAMETER: "TGI"
  RECORDED RESULT: "> 100 µM"
- MOLECULE: "CSCSCC(CO)NC(=O)/C(C)=C\\c1c(C)[nH]c(=O)[nH]c1=O (centres undefined)"
  TESTED TARGET: "OVCAR-4 ovarian"
  PARAMETER: "TGI"
  RECORDED RESULT: "> 250 µM"
- MOLECULE: "COC(=O)C1=CC2C=CC(C1C(=O)OC)C1C(C(=O)OC)=C(C(=O)OC)C(C(=O)OC)=C(C(=O)OC)C21OC (centres undefined)"
  TESTED TARGET: "OVCAR-4 ovarian"
  PARAMETER: "TGI"
  RECORDED RESULT: "> 100 µM"
- MOLECULE: "COC(C)(C)/C=C/c1[nH]c2ccccc2c1CC(=O)NCCc1cn(C(c2ccccc2)(c2ccccc2)c2ccccc2)cn1"
  TESTED TARGET: "OVCAR-4 ovarian"
  PARAMETER: "TGI"
  RECORDED RESULT: "> 100 µM"
- MOLECULE: "COC(=O)c1cc2c3ccccc3n3c2c(n1)-c1[nH]c2ccccc2c(=O)c1C3"
  TESTED TARGET: "OVCAR-4 ovarian"
  PARAMETER: "TGI"
  RECORDED RESULT: "> 100 µM"
- MOLECULE: "COc1cc(/C=N/N=C(\\N)NO)c(Cl)cc1O"
  TESTED TARGET: "OVCAR-4 ovarian"
  PARAMETER: "TGI"
  RECORDED RESULT: "> 100 µM"
- MOLECULE: "O=C(c1ccc(Cl)cc1)C(O)c1ccc(Cl)cc1 (centres undefined)"
  TESTED TARGET: "OVCAR-4 ovarian"
  PARAMETER: "TGI"
  RECORDED RESULT: "> 100 µM"
- MOLECULE: "COC(=O)c1oc2c(C(=O)/C=C/c3ccc(OC)cc3)c(OCCN(C)C)ccc2c1C"
  TESTED TARGET: "OVCAR-4 ovarian"
  PARAMETER: "TGI"
  RECORDED RESULT: "16.8 µM"
- MOLECULE: "CO[C@H]1CC(O[C@@H]2/C(C)=C/C[C@@H]3C[C@@H](C[C@]4(CC[C@H](C)[C@@H](C5CCCCC5)O4)O3)OC(=O)[C@@H]3C=C(C)/C(=N/O)[C@H]4OC/C(=C\\C=C\\[C@@H]2C)[C@]43O)O[C@@H](C)C1O (some centres undefined)"
  TESTED TARGET: "OVCAR-4 ovarian"
  PARAMETER: "TGI"
  RECORDED RESULT: "2.65 µM"
- MOLECULE: "C/C(=C(\\c1ccc(OCCN2CCCCCC2)cc1)c1ccc(OC(=O)c2ccccc2)cc1)c1ccc(Cl)cc1"
  TESTED TARGET: "OVCAR-4 ovarian"
  PARAMETER: "TGI"
  RECORDED RESULT: "9.82 µM"
- MOLECULE: "Cn1c2c(c3c(Cl)nncc31)Cc1ccccc1-2"
  TESTED TARGET: "OVCAR-4 ovarian"
  PARAMETER: "TGI"
  RECORDED RESULT: "> 100 µM"
- MOLECULE: "CCc1ccc(COC(=O)C2=C(C)NC(C)=C(C(=O)OCc3ccc(CC)cn3)C2C2=COCCO2)nc1"
  TESTED TARGET: "OVCAR-4 ovarian"
  PARAMETER: "TGI"
  RECORDED RESULT: "66.9 µM"
- MOLECULE: "CCOC(=O)NC(Nc1ccc(F)cc1)(C(=O)OCC)C(F)(F)F (centres undefined)"
  TESTED TARGET: "OVCAR-4 ovarian"
  PARAMETER: "TGI"
  RECORDED RESULT: "> 100 µM"
- MOLECULE: "C/C=C1/CC(C)C(C)(O)C(=O)OCC2C(O)CN3CCC(OC1=O)C23 (centres undefined)"
  TESTED TARGET: "OVCAR-4 ovarian"
  PARAMETER: "TGI"
  RECORDED RESULT: "> 100 µM"
- MOLECULE: "CC(=O)[C@H]1CCC/C=C/[C@@H]2C[C@H](O)C[C@H]2[C@H](O)/C=C/C(=O)O1"
  TESTED TARGET: "OVCAR-4 ovarian"
  PARAMETER: "TGI"
  RECORDED RESULT: "> 22.2 µM"
- MOLECULE: "Cc1cccc(C)c1N1C(=O)C(=O)C(c2nc3ccccc3s2)/C(=N\\N)C1=O (centres undefined)"
  TESTED TARGET: "OVCAR-4 ovarian"
  PARAMETER: "TGI"
  RECORDED RESULT: "> 100 µM"
- MOLECULE: "Cc1cc(C)c(-c2noc(-c3ccc(Cl)cc3)c2C2=NCCCN2)c(C)c1"
  TESTED TARGET: "OVCAR-4 ovarian"
  PARAMETER: "TGI"
  RECORDED RESULT: "> 100 µM"
- MOLECULE: "NC1CCC(N(CC(=O)O)CC(=O)O)C(N(CC(=O)O)CC(=O)O)C1 (centres undefined)"
  TESTED TARGET: "OVCAR-4 ovarian"
  PARAMETER: "TGI"
  RECORDED RESULT: "> 100 µM"
- MOLECULE: "CC(C)COc1nc2c(c(=O)n(C)c(=O)n2C)n1C"
  TESTED TARGET: "OVCAR-4 ovarian"
  PARAMETER: "TGI"
  RECORDED RESULT: "> 100 µM"
- MOLECULE: "CCNC(=O)Oc1ccc(/C(=C(/C)Cc2ccc(OC)cc2)c2ccc(OCCN(CC)CC)cc2)cc1"
  TESTED TARGET: "OVCAR-4 ovarian"
  PARAMETER: "TGI"
  RECORDED RESULT: "7.84 µM"
- MOLECULE: "O=C(Nc1ccc(Cl)cc1Cl)OC(Cn1cncn1)c1ccc(Cl)cc1Cl (centres undefined)"
  TESTED TARGET: "OVCAR-4 ovarian"
  PARAMETER: "TGI"
  RECORDED RESULT: "28 µM"
- MOLECULE: "CC1=CC(C)(C)NN1C1=NS(=O)(=O)c2ccccc2N1C"
  TESTED TARGET: "OVCAR-4 ovarian"
  PARAMETER: "TGI"
  RECORDED RESULT: "> 100 µM"
- MOLECULE: "O=Cc1cc(C(=O)OCc2ccccc2)n(S(=O)(=O)c2ccccc2)c1"
  TESTED TARGET: "OVCAR-4 ovarian"
  PARAMETER: "TGI"
  RECORDED RESULT: "> 100 µM"
